Measured values drawn from patent CN116693678A for this set.

Consider the following binders; for each one, report its OD值 (450nm, 参考630nm).
molecular target: 肺炎支原体天然抗原(购自Microbix) (Mycoplasma pneumoniae); test: indirect ELISA on coated antigen (2 ug/ml), antibody 0.46 ng/ml
One number for each entry, in OD.

* Anti-MP-11F5mut7 (antibody, mouse IgG1, kappa, V domains shown) VH: QVQLQQSGPELVKPGALVKISCKASGYTFTSFDINWVKQRPGQGLEWIGYIYPGDGSTKYNEKFKGKATLTADKSSSTAYMQFSSLTSENSAVYFCTRKGGWGAGHSAMDYWGQGTSVTVSS VL: DIQMTQTTSSLSASLGDRVTISCRASQAISNYINWYQQRPDGTVKLLIYYTSRKNSGAPSRFSGSGSGTDYSLTISNIDQEDIATYFCQQGYTTPYTFGGGTKLEIKR | 0.4
* Anti-MP-11F5mut4 (antibody, mouse IgG1, kappa, V domains shown) VH: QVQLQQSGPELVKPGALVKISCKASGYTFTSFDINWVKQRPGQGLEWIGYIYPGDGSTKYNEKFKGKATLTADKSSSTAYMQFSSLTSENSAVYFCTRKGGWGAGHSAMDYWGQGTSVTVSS VL: DIQMTQTTSSLSASLGDRVTISCRASQAISNYINWYQQRPDGTVKLLIYYTSRKNSGAPSRFSGSGSGTDYSLTISNLDQEDIATYFCQQGYTTPYTFGGGTKLEIKR | 0.49

We now examine a further binder.
Problem: Any idea what OD值 (450nm, 参考630nm) was measured for Anti-MP-11F5mut8 (antibody, mouse IgG1, kappa, V domains shown) VH: QVQLQQSGPELVKPGALVKISCKASGYTFTSFDINWVKQRPGQGLEWIGYIYPGDGSTKYNEKFKGKATLTADKSSSTAYMQFSSLTSEDSAVYFCTRKGGWGAGHSAMDYWGQGTSVTVSS VL: DIQMTQTTSSLSASLGDRVTISCRASQAISNYINWYQQRPDGTVKLLIYYTSRKNSGAPSRFSGSGSGTDYSLTISNIDQEDIATYFCQQGYTTPYTFGGGTKLEIKR ?
Solution: 0.56
